Listed next: entries and their corresponding melting point.

Some entries whose results are on file:
- Compound: "O=C(CN1CCN(CCCc2c[nH]c3ccccc23)CC1)N1CCOc2cc(F)ccc21"
  Result: "124 to 125.3 °C"
- Compound: "O=C(CN1CCN(CCCc2c[nH]c3ccccc23)CC1)N1CCOc2ccc(Cl)cc21"
  Result: "135.3 to 136.1 °C"
- Compound: "COc1ccc2c(c1)N(C(=O)CN1CCN(CCCc3c[nH]c4ccccc34)CC1)CCO2"
  Result: "123.6 to 125.1 °C"
- Compound: "O=C(CN1CCN(CCCc2c[nH]c3ccc(F)cc23)CC1)Nc1cc(C(=O)NCCN2CCOCC2)ccc1F [Compound 13b]"
  Result: "92.2 to 93.9 °C"
- Compound: "O=C(CN1CCN(CCCc2c[nH]c3ccc(Br)cc23)CC1)Nc1cc(F)ccc1C(=O)NCCN1CCOCC1 [Compound 13e]"
  Result: "92.1 to 93.8 °C"

QUERY: Tell us which melting point value is on record for O=C(CN1CCN(CCCc2c[nH]c3ccccc23)CC1)Nc1ccc(F)cc1C(=O)NCCN1CCOCC1 [Compound 13l]
RESULT: 68.1 to 69.6 °C

QUERY: Tell us which melting point value is on record for O=C(CN1CCN(CCCc2c[nH]c3ccc(Br)cc23)CC1)Nc1ccc(F)c(C(=O)NCCN2CCOCC2)c1 [Compound 13g]
RESULT: 73.2 to 74.5 °C

---

Listed next: entries and their corresponding Ki.
target: SERT (Homo sapiens); construct: purchased Perkin-Elmer (Boston, MA, USA) RBHSTM400UA; host or cells: HEK-293 clonal cell line; assay: SERT competitive binding assay, [3H]-paroxetine, membranes from HEK-293 clonal cell line overexpressing SERT; conditions: 2 nM [3H]-paroxetine, 1 h at 27 °C; mean ± SEM of three experiments, each in triplicate; read-out: Ki SERT
Sequence (P31645 whole entry): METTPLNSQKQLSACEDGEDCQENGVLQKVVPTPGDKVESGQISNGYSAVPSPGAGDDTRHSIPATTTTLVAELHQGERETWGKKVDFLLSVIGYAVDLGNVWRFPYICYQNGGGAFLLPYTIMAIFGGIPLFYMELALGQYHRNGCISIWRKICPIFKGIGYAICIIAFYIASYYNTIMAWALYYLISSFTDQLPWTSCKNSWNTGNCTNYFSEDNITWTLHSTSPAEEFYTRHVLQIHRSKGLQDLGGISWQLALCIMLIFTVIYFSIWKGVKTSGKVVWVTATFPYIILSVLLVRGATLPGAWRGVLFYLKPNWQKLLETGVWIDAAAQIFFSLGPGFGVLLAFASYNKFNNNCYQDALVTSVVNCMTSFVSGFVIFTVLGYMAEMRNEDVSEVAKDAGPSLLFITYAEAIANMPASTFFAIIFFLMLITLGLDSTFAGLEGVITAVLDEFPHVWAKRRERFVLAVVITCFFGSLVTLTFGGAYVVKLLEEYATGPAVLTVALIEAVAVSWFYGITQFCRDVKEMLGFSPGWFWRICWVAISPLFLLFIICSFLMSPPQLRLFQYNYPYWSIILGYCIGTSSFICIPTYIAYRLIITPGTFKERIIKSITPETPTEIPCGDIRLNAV
Unit nM implied. Number only.

Some entries whose results are on file:
- Chemical structure: "O=C(CN1CCN(CCCc2c[nH]c3ccccc23)CC1)N1CCOc2ccccc21"
  Ki, nM: 307
- Chemical structure: "O=C(CN1CCN(CCCc2c[nH]c3ccc(Br)cc23)CC1)N1CCOc2cc(F)ccc21"
  Ki, nM: 84.4
- Chemical structure: "O=C(CN1CCN(CCCc2c[nH]c3ccc(F)cc23)CC1)N1CCOc2ccc(Br)cc21"
  Ki, nM: 5.63

QUERY: GET Ki | system: SERT (Homo sapiens) | item: COc1ccc2c(c1)N(C(=O)CN1CCN(CCCc3c[nH]c4ccc(F)cc34)CC1)CCO2
RESULT: 12.6

---

target: D2 receptor (Homo sapiens, UniProt P14416); construct: purchased Perkin-Elmer (Boston, MA, USA) RBHD2CM400UA; host or cells: CHO-K1 clonal cell line; assay: D2 receptor competitive binding assay, [3H]-methylspiperone, membranes from CHO-K1 clonal cell line overexpressing D2 receptor; conditions: 0.5 nM [3H]-methylspiperone, 2 h at 27 °C; mean ± SEM of three experiments, each in triplicate
Sequence (P14416 whole entry): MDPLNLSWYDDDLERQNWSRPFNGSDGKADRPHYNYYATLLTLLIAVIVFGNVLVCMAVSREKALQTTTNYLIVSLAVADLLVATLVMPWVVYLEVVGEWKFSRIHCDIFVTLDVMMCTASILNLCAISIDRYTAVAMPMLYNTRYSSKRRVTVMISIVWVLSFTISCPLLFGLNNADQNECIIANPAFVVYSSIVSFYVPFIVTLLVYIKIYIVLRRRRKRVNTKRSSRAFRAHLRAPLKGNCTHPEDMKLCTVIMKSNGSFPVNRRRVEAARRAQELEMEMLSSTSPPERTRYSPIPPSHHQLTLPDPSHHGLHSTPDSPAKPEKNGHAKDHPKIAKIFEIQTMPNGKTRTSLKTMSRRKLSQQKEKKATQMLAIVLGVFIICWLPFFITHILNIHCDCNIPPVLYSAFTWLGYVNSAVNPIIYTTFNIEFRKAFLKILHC
# label = bin(measured Ki), where bins are small value = under 1 µM, mid value = from 1 µM up to 3 µM, large value = 3 µM and over

- Molecule: "O=C(CN1CCN(CCCc2c[nH]c3ccc(F)cc23)CC1)N1CCOc2ccc(F)cc21"
  Class assignment: "mid value"
- Molecule: "O=C(CN1CCN(CCCc2c[nH]c3ccccc23)CC1)N1CCOc2ccccc21"
  Class assignment: "large value"
- Molecule: "O=C(CN1CCN(CCCc2c[nH]c3ccccc23)CC1)N1CCOc2ccc(Br)cc21"
  Class assignment: "small value"

QUERY: Lab note: which band did O=C(CN1CCN(CCCc2c[nH]c3ccc(F)cc23)CC1)Nc1ccc(F)c(C(=O)NCCN2CCOCC2)c1 [Compound 13c] land in?
RESULT: small value

QUERY: Lab note: which band did O=C(CN1CCN(CCCc2c[nH]c3ccc(F)cc23)CC1)N1CCOc2cc(F)ccc21 land in?
RESULT: mid value

QUERY: Lab note: which band did O=C(CN1CCN(CCCc2c[nH]c3ccc(Br)cc23)CC1)Nc1ccc(F)cc1C(=O)NCCN1CCOCC1 [Compound 13h] land in?
RESULT: large value

QUERY: Lab note: which band did COc1ccc2c(c1)N(C(=O)CN1CCN(CCCc3c[nH]c4ccc(F)cc34)CC1)CCO2 land in?
RESULT: large value

QUERY: Lab note: which band did O=C(CN1CCN(CCCc2c[nH]c3ccc(Br)cc23)CC1)N1CCOc2cc(F)ccc21 land in?
RESULT: small value

QUERY: Lab note: which band did O=C(CN1CCN(CCCc2c[nH]c3ccc(Br)cc23)CC1)N1CCOc2ccccc21 land in?
RESULT: small value

QUERY: Lab note: which band did O=C(CN1CCN(CCCc2c[nH]c3ccccc23)CC1)Nc1ccc(F)cc1C(=O)NCCN1CCOCC1 [Compound 13l] land in?
RESULT: mid value

QUERY: Lab note: which band did O=C(CN1CCN(CCCc2c[nH]c3ccc(F)cc23)CC1)Nc1cc(C(=O)NCCN2CCOCC2)ccc1F [Compound 13b] land in?
RESULT: large value

QUERY: Lab note: which band did O=C(CN1CCN(CCCc2c[nH]c3ccccc23)CC1)N1CCOc2cc(F)ccc21 land in?
RESULT: large value

QUERY: Lab note: which band did O=C(CN1CCN(CCCc2c[nH]c3ccc(Br)cc23)CC1)N1CCOc2ccc(F)cc21 land in?
RESULT: mid value

QUERY: Lab note: which band did O=C(CN1CCN(CCCc2c[nH]c3ccccc23)CC1)N1CCOc2ccc(F)cc21 land in?
RESULT: mid value

QUERY: Lab note: which band did O=C(CN1CCN(CCCc2c[nH]c3ccc(F)cc23)CC1)N1CCOc2ccccc21 land in?
RESULT: mid value

QUERY: Lab note: which band did O=C(CN1CCN(CCCc2c[nH]c3ccc(F)cc23)CC1)N1CCOc2ccc(Br)cc21 land in?
RESULT: mid value

QUERY: Lab note: which band did O=C(CN1CCN(CCCc2c[nH]c3ccc(Br)cc23)CC1)Nc1ccc(F)c(C(=O)NCCN2CCOCC2)c1 [Compound 13g] land in?
RESULT: small value

QUERY: Lab note: which band did COc1ccc2c(c1)N(C(=O)CN1CCN(CCCc3c[nH]c4ccccc34)CC1)CCO2 land in?
RESULT: large value

---

target: rat MAO-A (Rattus norvegicus, UniProt P21396); construct: using a crude rat brain mitochondrial suspension as a source of enzyme; from tissue; host or cells: rat brain (crude mitochondrial suspension); assay: MAO-A inhibition, crude rat brain mitochondrial suspension, serotonin substrate, HPLC-ED; type: biochemical; settings: 100 µM compound; serotonin 100 µM as substrate
Sequence (P21396 whole entry): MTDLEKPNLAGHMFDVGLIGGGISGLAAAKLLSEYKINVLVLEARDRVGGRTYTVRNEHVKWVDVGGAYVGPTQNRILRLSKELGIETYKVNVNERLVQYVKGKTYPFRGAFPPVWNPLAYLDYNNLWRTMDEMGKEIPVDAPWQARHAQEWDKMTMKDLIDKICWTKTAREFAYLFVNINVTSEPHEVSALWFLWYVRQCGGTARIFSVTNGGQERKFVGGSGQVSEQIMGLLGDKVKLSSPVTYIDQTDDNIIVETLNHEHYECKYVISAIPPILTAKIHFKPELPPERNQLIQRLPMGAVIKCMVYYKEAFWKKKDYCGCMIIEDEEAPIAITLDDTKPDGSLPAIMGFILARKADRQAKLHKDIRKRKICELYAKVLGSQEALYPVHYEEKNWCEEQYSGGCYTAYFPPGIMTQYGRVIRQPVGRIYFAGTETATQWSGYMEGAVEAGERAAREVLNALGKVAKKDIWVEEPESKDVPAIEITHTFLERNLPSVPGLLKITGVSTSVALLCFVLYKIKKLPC
Reported property: inhibition at 100 µM (%)
Unit % implied. Number only.

- Molecule: "O=C(CN1CCN(CCCc2c[nH]c3ccc(F)cc23)CC1)N1CCOc2ccc(Br)cc21 [Compound 7k]"
  inhibition at 100 µM [%]: 20

QUERY: GET inhibition at 100 µM | system: rat MAO-A (Rattus norvegicus, UniProt P21396) | item: COc1ccc2c(c1)N(C(=O)CN1CCN(CCCc3c[nH]c4ccc(F)cc34)CC1)CCO2 [Compound 7l]
RESULT: 52

QUERY: GET inhibition at 100 µM | system: rat MAO-A (Rattus norvegicus, UniProt P21396) | item: O=C(CN1CCN(CCCc2c[nH]c3ccccc23)CC1)Nc1ccc(F)c(C(=O)NCCN2CCOCC2)c1 [Compound 13k]
RESULT: 34

QUERY: GET inhibition at 100 µM | system: rat MAO-A (Rattus norvegicus, UniProt P21396) | item: O=C(CN1CCN(CCCc2c[nH]c3ccc(F)cc23)CC1)Nc1cc(C(=O)NCCN2CCOCC2)ccc1F [Compound 13b]
RESULT: 42

QUERY: GET inhibition at 100 µM | system: rat MAO-A (Rattus norvegicus, UniProt P21396) | item: O=C(CN1CCN(CCCc2c[nH]c3ccccc23)CC1)N1CCOc2ccc(Br)cc21 [Compound 7e]
RESULT: 38

QUERY: GET inhibition at 100 µM | system: rat MAO-A (Rattus norvegicus, UniProt P21396) | item: O=C(CN1CCN(CCCc2c[nH]c3ccc(F)cc23)CC1)N1CCOc2ccc(Cl)cc21 [Compound 7j]
RESULT: 20

---

Molecular target: D2 receptor (Homo sapiens, UniProt P14416)
Experiment: D2 receptor competitive binding assay, [3H]-methylspiperone, membranes from CHO-K1 clonal cell line overexpressing D2 receptor
Settings: 0.5 nM [3H]-methylspiperone, 2 h at 27 °C; mean ± SEM of three experiments, each in triplicate
Experimental: To determine the binding of all compounds at D2 receptor, competitive binding assays were performed according to provider indications with some modifications. […] Radioactivity was counted as described before.
Reported property: Ki (µM)
Unit µM implied. Number only.

Some entries whose results are on file:
- Molecule: "O=C(CN1CCN(CCCc2c[nH]c3ccccc23)CC1)N1CCOc2ccc(Cl)cc21"
  Quantitative result: 1.27
- Molecule: "O=C(CN1CCN(CCCc2c[nH]c3ccc(Br)cc23)CC1)Nc1cc(C(=O)NCCN2CCOCC2)ccc1F [Compound 13f]"
  Quantitative result: 1.83
- Molecule: "O=C(CN1CCN(CCCc2c[nH]c3ccc(Br)cc23)CC1)Nc1cc(F)ccc1C(=O)NCCN1CCOCC1 [Compound 13e]"
  Quantitative result: 5.62
- Molecule: "O=C(CN1CCN(CCCc2c[nH]c3ccccc23)CC1)Nc1ccc(F)c(C(=O)NCCN2CCOCC2)c1 [Compound 13k]"
  Quantitative result: 4.17

Okay, now this molecule:
QUERY: GET Ki | system: D2 receptor (Homo sapiens, UniProt P14416) | item: O=C(CN1CCN(CCCc2c[nH]c3ccc(F)cc23)CC1)N1CCOc2ccc(Cl)cc21
RESULT: 0.902
